target: M. tb ICD-2 (Mycobacterium tuberculosis, UniProt O53611)
Sequence (O53611 whole entry): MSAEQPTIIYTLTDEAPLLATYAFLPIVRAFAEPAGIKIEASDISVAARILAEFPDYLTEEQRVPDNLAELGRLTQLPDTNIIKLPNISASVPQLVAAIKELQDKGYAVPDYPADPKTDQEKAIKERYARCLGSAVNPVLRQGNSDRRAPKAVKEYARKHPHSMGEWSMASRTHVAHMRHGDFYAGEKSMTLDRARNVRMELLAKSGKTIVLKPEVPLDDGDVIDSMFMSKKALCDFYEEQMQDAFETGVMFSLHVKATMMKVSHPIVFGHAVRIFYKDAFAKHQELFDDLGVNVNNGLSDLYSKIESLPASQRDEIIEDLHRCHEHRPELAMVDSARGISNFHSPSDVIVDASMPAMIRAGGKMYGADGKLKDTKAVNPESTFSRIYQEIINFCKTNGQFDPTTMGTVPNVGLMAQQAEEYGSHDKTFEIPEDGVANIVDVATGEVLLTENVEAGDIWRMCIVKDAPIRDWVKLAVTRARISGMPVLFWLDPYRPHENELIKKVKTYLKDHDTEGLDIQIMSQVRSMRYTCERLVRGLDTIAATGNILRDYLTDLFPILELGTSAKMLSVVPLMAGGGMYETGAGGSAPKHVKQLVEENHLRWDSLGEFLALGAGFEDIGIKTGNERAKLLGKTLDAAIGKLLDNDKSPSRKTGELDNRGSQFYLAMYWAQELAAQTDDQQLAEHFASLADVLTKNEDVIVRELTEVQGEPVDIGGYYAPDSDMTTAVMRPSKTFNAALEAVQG
Readout Type: Ki
Please don't drop the unit; write it after the number.

System M. tb ICD-2 (Mycobacterium tuberculosis, UniProt O53611). Read-out Ki. Item NC(=O)C1=CN([C@@H]2O[C@H](COP(=O)(O)OP(=O)(O)OC[C@H]3O[C@@H](n4cnc5c(N)ncnc54)[C@H](OP(=O)(O)O)[C@@H]3O)[C@@H](O)[C@H]2O)C=CC1 [NADPH] . Report value.
4.6 µM
